What IC50 was measured for each of the following?
- tested.system: various mutants of kinase EGFR (BaF3 cell lines stably transfected with kinase) (Homo sapiens, UniProt P00533, C797S/L858R/T790M)
- Construct: expressed in transfected cells; host or cells: BaF3
- Sequence (P00533 25-1210 T790M/C797S/L858R): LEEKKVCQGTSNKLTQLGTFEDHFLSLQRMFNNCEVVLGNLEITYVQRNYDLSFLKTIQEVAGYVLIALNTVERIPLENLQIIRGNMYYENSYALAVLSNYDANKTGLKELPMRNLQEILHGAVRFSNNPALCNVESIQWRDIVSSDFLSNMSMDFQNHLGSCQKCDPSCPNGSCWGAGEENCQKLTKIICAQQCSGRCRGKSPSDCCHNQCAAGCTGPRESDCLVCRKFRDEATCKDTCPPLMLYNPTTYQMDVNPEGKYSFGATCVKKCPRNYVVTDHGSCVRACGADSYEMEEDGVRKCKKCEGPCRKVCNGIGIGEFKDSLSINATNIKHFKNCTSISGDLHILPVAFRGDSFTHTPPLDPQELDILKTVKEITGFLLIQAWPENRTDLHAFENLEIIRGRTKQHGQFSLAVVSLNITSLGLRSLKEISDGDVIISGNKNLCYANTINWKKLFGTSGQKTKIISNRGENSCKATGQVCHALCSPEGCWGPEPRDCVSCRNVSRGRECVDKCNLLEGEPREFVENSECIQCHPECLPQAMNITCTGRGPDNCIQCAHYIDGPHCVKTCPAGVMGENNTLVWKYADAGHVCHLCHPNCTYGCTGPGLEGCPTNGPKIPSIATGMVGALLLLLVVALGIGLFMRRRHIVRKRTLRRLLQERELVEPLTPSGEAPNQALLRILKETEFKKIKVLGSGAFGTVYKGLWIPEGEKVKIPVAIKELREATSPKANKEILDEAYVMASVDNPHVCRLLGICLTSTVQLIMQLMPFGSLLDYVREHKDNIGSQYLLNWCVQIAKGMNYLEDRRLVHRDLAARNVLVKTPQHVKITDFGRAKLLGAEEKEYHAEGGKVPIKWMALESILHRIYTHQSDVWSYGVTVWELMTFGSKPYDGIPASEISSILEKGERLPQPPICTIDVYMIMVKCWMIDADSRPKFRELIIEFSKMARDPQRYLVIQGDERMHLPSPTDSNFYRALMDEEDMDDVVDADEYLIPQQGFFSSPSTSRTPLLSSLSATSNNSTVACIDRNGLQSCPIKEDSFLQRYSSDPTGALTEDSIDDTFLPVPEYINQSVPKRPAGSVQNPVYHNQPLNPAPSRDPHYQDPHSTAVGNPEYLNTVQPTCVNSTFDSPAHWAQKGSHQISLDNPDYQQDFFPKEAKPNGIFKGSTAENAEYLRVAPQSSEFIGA
- protocol.summary: Growth inhibitory activity of compounds on BaF3 cell lines stably transfected with kinase (MTS, 48 h)
- Assay type: cell-based
- condition.details: BaF3 cells stably transfected with EGFR L858R/T790M/C797S, read-out: IC50, growth inhibition, L858R/T790M/C797S

Recorded IC50, per entry:
CCc1cc(Nc2ncc(Br)c(Nc3ccc4nccnc4c3N(CC)S(C)(=O)=O)n2)c(OC)cc1N1CCN(C)CC1; ≤ 0.05 µM
CCc1cc(Nc2ncc(Br)c(Nc3ccc4nccnc4c3N(C)S(=O)(=O)C3CC3)n2)c(OC)cc1N1CCC(N(C)C)C1 (stereo not drawn); ≤ 0.05 µM
CCc1cc(Nc2ncc(Cl)c(Nc3ccc4nccnc4c3N(C)S(=O)(=O)CC)n2)c(OC)cc1N1CCC(N(C)C)CC1; ≤ 0.05 µM
COc1cc(N2CCC(N3CCN(C)CC3)CC2)c(CC2CC2)cc1Nc1ncc(Cl)c(Nc2ccc3nccnc3c2N(C2CC2)S(C)(=O)=O)n1; ≤ 0.05 µM
CCc1cc(Nc2ncc(Cl)c(Nc3ccc4nccnc4c3N(C)S(=O)(=O)CC)n2)c(OC)cc1N1CCN(C)CC1; ≤ 0.05 µM

// below: IC50 requested for another compound
Q: What value of IC50 has been recorded for this entry: `COc1cc(N2CCC(N3CCN(C)CC3)CC2)c(Cc2ccccc2)cc1Nc1ncc(Br)c(Nc2ccc3nccnc3c2N(C)S(C)(=O)=O)n1`
Ans: 0.5 to 2.5 µM
